- Organism: Rattus norvegicus
- TEST_NAME: Open TG-GATES - Regimen: Single
- Format: toxicity, organism-based, Sprague-Dawley
- Set-up: regimen Single, gender Male, age 6 weeks
- SETUP_CONDITIONS: in vivo, po, 100 mg/kg, 24 h, tissue Kidney, route gavage, dose level Low
The entries below are paired with their reported KIDNEY_TOTAL.

# COMPOUND, UNIT_LABEL, KIDNEY_TOTAL
rows = [
    ("CCOC(=O)CCC(=O)O[C@H]1[C@H](O[C@@H]2[C@@H](C)[C@H](O[C@H]3C[C@@](C)(OC)[C@@H](O)[C@H](C)O3)[C@@H](C)C(=O)O[C@H](CC)[C@@](C)(O)[C@H](O)[C@@H](C)C(=O)[C@H](C)C[C@@]2(C)O)O[C@H](C)C[C@@H]1N(C)C [ERYTHROMYCIN ETHYLSUCCINATE]", "g", 1.9),
    ("NC(N)=Nc1nc(CSCCC(N)=NS(N)(=O)=O)cs1", "g", 2),
    ("COC1=CC(=O)C[C@@H](C)[C@]12Oc1c(Cl)c(OC)cc(OC)c1C2=O", "g", 2),
    ("COc1ccc2[nH]c([S+]([O-])Cc3ncc(C)c(OC)c3C)nc2c1 (centres undefined)", "g", 2.1),
]

Value source: ChEMBL document CHEMBL3885861
